Value source: ChEMBL document CHEMBL6127105

- test.description: Immunosuppressive activity against LPS induced B-cells proliferation
- Type: functional, cell-based
- conditions.used: B-cell
Listed molecules paired with reported pIC50
Reminder that pIC50 is minus the log10 of a molar concentration.

Guide cases for pIC50, answers given:
Q) Given the molecule CC1=C[C@H](O)[C@@H]2[C@@]3(C)[C@H](O)CC(=O)C(C)(C)[C@@H]3CC[C@@]2(C)[C@]12Cc1c(c(C)c(C)oc1=O)O2 , what is its reported pIC50?
A) 4.89

Q) Given the molecule CC1=CC[C@@H]2[C@@]3(C)C=CC(=O)C(C)(C)[C@@H]3CC[C@@]2(C)[C@]12Cc1c(c(C)c(C)oc1=O)O2 , what is its reported pIC50?
A) 5.17

Q) Given the molecule CC1=C[C@H](O)[C@@H]2[C@@]3(C)[C@H](O)[C@@H](O)[C@H](O)C(C)(C)[C@@H]3CC[C@@]2(C)[C@]12Cc1c(c(C)c(C)oc1=O)O2 , what is its reported pIC50?
A) 5.20

Q) Given the molecule CC1=CC[C@@H]2[C@@]3(C)CCC(=O)C(C)(C)[C@@H]3CC[C@@]2(C)[C@]12Cc1c(c(C)c(C)oc1=O)O2 , what is its reported pIC50?
A) 4.77

Q) Given the molecule CC1=C[C@H](O)[C@@H]2[C@@]3(C)CCC(=O)C(C)(C)[C@@H]3CC[C@@]2(C)[C@]12Cc1c(c(C)c(C)oc1=O)O2 , what is its reported pIC50?
A) 4.74

***
Q) Given the molecule CC1=C[C@H](O)[C@@H]2[C@@]3(C)CC[C@H](O)C(C)(C)[C@@H]3CC[C@@]2(C)[C@]12Cc1c(c(C)c(C)oc1=O)O2 , what is its reported pIC50?
A) 5.34

Q) Given the molecule CC1=C[C@H](O)[C@@H]2[C@@]3(C)C=CC(=O)C(C)(C)[C@@H]3CC[C@@]2(C)[C@]12Cc1c(c(C)c(C)oc1=O)O2 , what is its reported pIC50?
A) 5.12
